- protocol: gradient 5% acetonitrile 3 min, to 50% in 2 min, to 85% in 15 min, held 3 min, 100 µL/min
- settings: column: Zorbax Extend-C18 2.1 x 50 mm; eluents: water / acetonitrile, 0.1% formic acid
observationType: RP-LC retention time (s)

[a] CC(=O)N1CCc2cc(N3CC(C(=O)Nc4ccc(F)cc4)CC3=O)ccc21 (stereo not given)
[b] CCC(C)NC(=O)Cn1nc2c3sc(N(C)C)nc3ncn2c1=O (stereo not given)
input: Given a and given b , which shows the smaller recorded RP-LC retention time? Indicate your choice by writing its label.
output: a
(a: 699 s, b: 1130 s)

[1] Cc1ccc(NC(=O)Nc2ccc3c(c2)CCN3S(=O)(=O)c2ccccc2)cc1
[2] COc1ccc(C(=O)CSc2nc3ccccc3[nH]2)cc1
input: Given 1 and given 2 , which shows the smaller recorded RP-LC retention time? Indicate your choice by writing its label.
output: 2

[A] COCCn1nnnc1C1CC2(CCOCC2)C(=O)N1CCc1ccc(Cl)cc1 (stereo not given)
[B] OC1(c2ccccn2)CCOC2(CCN(Cc3ccc(Cl)cc3F)CC2)C1 (stereo not given)
input: API: POST /compare with A and B ; response names the item with higher RP-LC retention time. Indicate your choice by writing its label.
output: A
(A: 880 s, B: 579 s)

###

- protocol: gradient 5% acetonitrile 3 min, to 50% in 2 min, to 85% in 15 min, held 3 min, 100 µL/min
- settings: column: Zorbax Extend-C18 2.1 x 50 mm; eluents: water / acetonitrile, 0.1% formic acid
observationType: RP-LC retention time (s)

Cc1nc(-c2ccccc2)cc2nn(CC(=O)NCc3ccc(F)cc3F)c(=O)n12 :: 902
Cc1cccc(CNC(=O)C2(C)Oc3cccnc3N(C)C2=O)c1 (stereo not drawn) :: 876
Cc1ccc(C(=O)Nc2ccc3c(c2)Sc2ncccc2C(=O)N3C(C)C)s1 :: 886

###

- protocol: gradient 5% acetonitrile 3 min, to 50% in 2 min, to 85% in 15 min, held 3 min, 100 µL/min
- settings: column: Zorbax Extend-C18 2.1 x 50 mm; eluents: water / acetonitrile, 0.1% formic acid
observationType: RP-LC retention time (s)

CC1CCN(c2ncc3c(n2)CCN(Cc2ccc(N(C)C)cc2)C3)CC1 :: 757
Cn1c(C(=O)N2CCC(C(=O)NCc3ccccc3Cl)CC2)cc2oc3ccccc3c21 :: 978
O=C(Cn1cnc2c(sc3nc(-c4ccccc4)ccc32)c1=O)NCc1ccccc1 :: 953
Cc1cc(C)cc(N2C=C(C(=O)N3CCOCC3)S(=O)(=O)c3ccc(F)cc32)c1 :: 788
COc1cc(-c2noc(-c3ncn4c3COC(c3ccc(F)cc3)C4)n2)cc(OC)c1OC (stereo not given) :: 976
Cc1cc(C)c2c(N3CCSCC3)nc(C(=O)NCC3CCCO3)nc2n1 (stereo not given) :: 624
CC1CCN(C(=O)CSCc2nc3cccnc3n2C2CCCCC2)CC1 :: 960
Cc1ccc(-c2nc(CN3CCOCC3)c(C)o2)cc1 :: 640
O=C(NCc1nnnn1C1CCCCC1)c1ccccc1C(F)(F)F :: 782
COc1cc(NC(=O)C2CCN(C(=O)C3Sc4ccccc4NC3=O)CC2)cc(OC)c1OC (stereo not given) :: 707

###

- protocol: gradient 5% acetonitrile 3 min, to 50% in 2 min, to 85% in 15 min, held 3 min, 100 µL/min
- settings: column: Zorbax Extend-C18 2.1 x 50 mm; eluents: water / acetonitrile, 0.1% formic acid
observationType: RP-LC retention time (s)

[a] Cc1ccc(CNC(=O)C2(C)CCN(C(=O)Nc3ccc(C)cc3Cl)CC2)cc1
[b] CCC(=O)N1CCCCCCNC(=O)[C@@H]2CCC[C@@H]21
input: API: POST /compare with a and b ; response names the item with higher RP-LC retention time. Indicate your choice by writing its label.
output: a
(a: 956 s, b: 657 s)
